- Experimental target: PfCRT^3D7 (Plasmodium falciparum, UniProt Q8IBZ9)
- Sequence (Q8IBZ9 59-398): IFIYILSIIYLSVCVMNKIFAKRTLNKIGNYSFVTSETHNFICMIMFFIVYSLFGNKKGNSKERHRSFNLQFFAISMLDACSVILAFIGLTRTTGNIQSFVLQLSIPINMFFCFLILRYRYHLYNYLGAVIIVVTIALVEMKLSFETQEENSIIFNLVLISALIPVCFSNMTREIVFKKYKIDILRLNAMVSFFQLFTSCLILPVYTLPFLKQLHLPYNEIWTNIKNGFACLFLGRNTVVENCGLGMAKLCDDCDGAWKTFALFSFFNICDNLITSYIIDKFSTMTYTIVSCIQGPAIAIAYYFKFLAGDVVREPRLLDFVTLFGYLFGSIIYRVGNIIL
- Method description: cell-based
- Assay type: cell-based
- Conditions: 2nd of 6 trans-stimulation columns, footnote b: due to solubility the highest intracellular concentration tested was 30 mM; normalised to the oocyte type control = 100
// reported Trans-stimulation data: PfCRT-mediated [3H]CQ transport for each item listed
Measured quantity: Trans-stimulation data: PfCRT-mediated [3H]CQ transport (b)

{"Sequence data": "LTPEEKSAVTALWGKVNVDEVGGEA [LA-25, additional peptide, 25 residues]", "Numeric readout": 97}
{"Sequence data": "FESFGDLSTPDAVMGNPKVK [FK-20, additional peptide, 20 residues]", "Numeric readout": 98}
{"Sequence data": "VHLTPEEKSAVT [VT-12]", "Numeric readout": 97}
{"Sequence data": "DDEGDDDPVPLPNVNA [DA-16, additional peptide, 16 residues]", "Numeric readout": 97}
{"Sequence data": "GTFATLSELHCDK [GK-13]", "Numeric readout": 98}
{"Sequence data": "LTPEEKSAVTAL [LL-12]", "Numeric readout": 97}
{"Sequence data": "VEPSDTIENVK [VK-11]", "Numeric readout": 158}
{"Sequence data": "NAVAHVDDMPNALSALSDLH [NH-20, additional peptide, 20 residues]", "Numeric readout": 95}
{"Sequence data": "SFGDLSTPDAVMG [SG-13]", "Numeric readout": 97}

----------
Entries annotated with measured Trans-stimulation data: total [3H]CQ transport
- Experimental target: PfCRT^Dd2 (Plasmodium falciparum, UniProt Q9N623, A220S/I356T/K76T/M74I/N326S/N75E/Q271E/R371I)
- Sequence (Q9N623 whole entry A220S/I356T/K76T/M74I/N326S/N75E/Q271E/R371I): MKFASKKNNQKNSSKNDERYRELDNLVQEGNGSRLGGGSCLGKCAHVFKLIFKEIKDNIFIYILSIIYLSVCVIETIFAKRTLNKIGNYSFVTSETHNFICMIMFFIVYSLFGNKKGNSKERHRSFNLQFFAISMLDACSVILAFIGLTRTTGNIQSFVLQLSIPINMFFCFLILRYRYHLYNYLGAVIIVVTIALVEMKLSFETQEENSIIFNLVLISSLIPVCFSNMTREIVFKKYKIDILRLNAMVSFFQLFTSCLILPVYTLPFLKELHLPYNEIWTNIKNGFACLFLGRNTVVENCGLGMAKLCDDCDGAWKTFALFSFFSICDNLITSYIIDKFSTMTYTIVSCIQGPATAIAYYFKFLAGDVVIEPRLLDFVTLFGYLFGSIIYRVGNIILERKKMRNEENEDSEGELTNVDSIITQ
- Method description: cell-based
- Assay type: cell-based
- Conditions: PfCRTDd2 oocytes; footnote b: highest intracellular concentration tested was 30 mM (solubility); normalised to the oocyte type control (control = 100)
Measured quantity: Trans-stimulation data: total [3H]CQ transport (b)

{"Sequence data": "LTPEEKSAVTAL [LL-12]", "Unit info": "b", "Numeric readout": 100}
{"Sequence data": "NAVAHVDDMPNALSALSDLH [NH-20, additional peptide, 20 residues]", "Unit info": "b", "Numeric readout": 99}
{"Sequence data": "DDEGDDDPVPLPNVNA [DA-16, additional peptide, 16 residues]", "Unit info": "b", "Numeric readout": 99}
{"Sequence data": "SFGDLSTPDAVMG [SG-13]", "Unit info": "b", "Numeric readout": 100}
{"Sequence data": "GTFATLSELHCDK [GK-13]", "Unit info": "b", "Numeric readout": 97}
{"Sequence data": "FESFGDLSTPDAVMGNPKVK [FK-20, additional peptide, 20 residues]", "Unit info": "b", "Numeric readout": 101}

----------
- Experimental target: PfNT1 (Plasmodium falciparum, UniProt Q8IDM6)
- Construct: expressed in transfected cells; host or cells: Xenopus laevis oocytes (stage V-VI), cRNA-injected
- Sequence (Q8IDM6 whole entry): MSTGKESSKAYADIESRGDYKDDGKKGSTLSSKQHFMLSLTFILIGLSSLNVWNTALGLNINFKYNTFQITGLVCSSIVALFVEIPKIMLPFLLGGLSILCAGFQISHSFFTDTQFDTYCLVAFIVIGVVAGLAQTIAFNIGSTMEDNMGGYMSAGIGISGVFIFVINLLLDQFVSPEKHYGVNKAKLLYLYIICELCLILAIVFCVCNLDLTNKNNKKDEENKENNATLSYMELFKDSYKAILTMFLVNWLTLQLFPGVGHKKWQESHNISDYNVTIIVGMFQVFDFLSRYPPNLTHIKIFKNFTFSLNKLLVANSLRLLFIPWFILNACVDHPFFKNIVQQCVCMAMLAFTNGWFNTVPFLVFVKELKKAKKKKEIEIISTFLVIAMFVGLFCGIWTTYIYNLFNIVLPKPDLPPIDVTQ
- Method description: cell-based
- Assay type: cell-based
- Conditions: total [3H]CQ transport; [test solute]i = 5 mM (intracellular); mean ± SEM; SEM; read-out: Uptake of [3H]CQ (% PfCRTDd2 control), trans-stimulation, PfNT1
A collection of compounds and their measured activity at 5000 µM
Measured quantity: activity at 5000 µM (%)

{"Compound": "CC(C)C[C@H](N)C(=O)O [L-leucine]", "Experimental target": "PfNT1 (Plasmodium falciparum, UniProt Q8IDM6)", "Numeric readout": 3}
{"Compound": "C[C@H](N)C(=O)O [L-alanine]", "Experimental target": "PfNT1 (Plasmodium falciparum, UniProt Q8IDM6)", "Numeric readout": 2.2}
{"Compound": "N[C@@H](Cc1ccccc1)C(=O)O [L-phenylalanine]", "Experimental target": "PfNT1 (Plasmodium falciparum, UniProt Q8IDM6)", "Numeric readout": 3}
{"Compound": "N[C@@H](Cc1c[nH]cn1)C(=O)O [L-histidine]", "Experimental target": "PfNT1 (Plasmodium falciparum, UniProt Q8IDM6)", "Numeric readout": 2.2}
{"Compound": "C[C@@H](O)[C@H](N)C(=O)O [L-threonine]", "Experimental target": "PfNT1 (Plasmodium falciparum, UniProt Q8IDM6)", "Numeric readout": 2.8}
{"Compound": "N[C@@H](CS)C(=O)O [L-cysteine]", "Experimental target": "PfNT1 (Plasmodium falciparum, UniProt Q8IDM6)", "Numeric readout": 2.6}
{"Compound": "N[C@@H](Cc1c[nH]c2ccccc12)C(=O)O [L-tryptophan]", "Experimental target": "PfNT1 (Plasmodium falciparum, UniProt Q8IDM6)", "Numeric readout": 2.7}
